# Tested on: OVCAR-8
# experiment_description: NCI tumour cell line growth inhibition, 48 h
Calls of active or inactive are those of the source. Rule as the data show it: active = GI50 up to about 1.1 µM and inactive = higher.
Below, each entry is listed with its recorded GI50.

Any idea what its GI50 is? The molecule is CC(=O)OC(C)C1C2=C(C(=O)CC1(C)O)C(=O)c1c(ccc(-c3ccc4c(c3O)C(=O)C3=C(C4=O)C(C(C)OC(C)=O)C(C)(O)CC3=O)c1O)C2=O (stereo not given) 2.45 µM (inactive)

Any idea what its GI50 is? The molecule is Nc1nc(SCCC/C=C/B(O)O)nc2c1ncn2C1OC(COP(=O)(O)O)C(O)C1O (stereo not given) > 203 µM (inactive)

Any idea what its GI50 is? The molecule is Oc1c(OCc2nnc(CCCCCCCCc3nnc(COc4ccc5ccccc5c4O)n3Nc3ccccc3)n2Nc2ccccc2)ccc2ccccc12 11.2 µM (inactive)

Any idea what its GI50 is? The molecule is CC1COS(=O)N1c1ccccc1 (stereo not given) > 100 µM (inactive)

Any idea what its GI50 is? The molecule is Cc1c2c(c(C)c3c[n+](C)ccc13)Oc1ccccc1O2 6.05 µM (inactive)
